- measured_target: Sentrin-specific protease 8 (Homo sapiens)
- assay_summary: inhibition of human SENP8 cleavage activity – biochemical, luminescence, SAR follow-up (AID 504501)
- Assay type: functional
Calls of active or inactive are those of the source. Cut-off read from the data, not from the text of the source: actives have a measured IC50 and inactives only a lower limit.
Outcome codes: active, inactive

[[record]]
molecule = "COc1ccc(N/N=C/c2c[nH]c3ccccc23)cc1"
measured_target = "Sentrin-specific protease 8 (Homo sapiens)"
category = "active"

[[record]]
molecule = "CCCCc1ccc2nc(NC(=O)c3ccco3)sc2c1"
measured_target = "Sentrin-specific protease 8 (Homo sapiens)"
category = "active"

[[record]]
molecule = "COc1cccc(-c2noc(/C=C/c3ccccc3Cl)n2)c1"
measured_target = "Sentrin-specific protease 8 (Homo sapiens)"
category = "active"

[[record]]
molecule = "CC1CCc2c(sc(NC(=O)c3ccc(Cn4cc(Br)cn4)o3)c2C(N)=O)C1 (centres undefined)"
measured_target = "Sentrin-specific protease 8 (Homo sapiens)"
category = "inactive"


###

The reader will find reported IC50 values listed item by item below.
- measured_target: Caspase-3 (Homo sapiens, UniProt P42574);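 note: Dose-response selectivity test against caspase-3 for candidate inhibitors of sentrin-specific proteases (SENPs)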
- Sequence (P42574 whole entry): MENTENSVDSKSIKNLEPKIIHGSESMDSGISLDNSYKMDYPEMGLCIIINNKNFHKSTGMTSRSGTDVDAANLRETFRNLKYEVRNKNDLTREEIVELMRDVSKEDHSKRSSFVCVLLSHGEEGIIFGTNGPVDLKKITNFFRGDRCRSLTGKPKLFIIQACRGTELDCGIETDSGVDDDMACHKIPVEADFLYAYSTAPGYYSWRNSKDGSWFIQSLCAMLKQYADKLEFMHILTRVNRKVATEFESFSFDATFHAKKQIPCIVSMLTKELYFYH
- Type: functional
The source made the active and inactive calls.
quantity_kind: IC50

[[record]]
molecule = "Nc1cc(Cl)nc(N/N=C/c2c(O)ccc3ccccc23)n1"
quantity_kind = "IC50"
reported = "48 µM (active)"

[[record]]
molecule = "Cn1c(C(=O)Nc2ccc3c(c2)OCO3)cc2sccc21"
quantity_kind = "IC50"
reported = "14.4 µM (active)"

[[record]]
molecule = "c1ccc(N2CC3CCc4ccccc4C3=N2)cc1 (stereo unspecified)"
quantity_kind = "IC50"
reported = "23.3 µM (active)"

[[record]]
molecule = "Cc1cccc(NC(=O)COc2ccc(Br)cc2C)n1"
quantity_kind = "IC50"
reported = "13.9 µM (active)"

[[record]]
molecule = "O=C1CN(C(=O)COC(=O)c2ccc([N+](=O)[O-])s2)c2ccccc2N1"
quantity_kind = "IC50"
reported = "96.6 µM (active)"

[[record]]
molecule = "COc1ccc(NC(=O)c2cccc(Oc3ccccc3)c2)cn1"
quantity_kind = "IC50"
reported = "17.5 µM (active)"


###

- measured_target: Sentrin-specific protease 8 (Homo sapiens, UniProt Q96LD8)
- Sequence (Q96LD8 whole entry): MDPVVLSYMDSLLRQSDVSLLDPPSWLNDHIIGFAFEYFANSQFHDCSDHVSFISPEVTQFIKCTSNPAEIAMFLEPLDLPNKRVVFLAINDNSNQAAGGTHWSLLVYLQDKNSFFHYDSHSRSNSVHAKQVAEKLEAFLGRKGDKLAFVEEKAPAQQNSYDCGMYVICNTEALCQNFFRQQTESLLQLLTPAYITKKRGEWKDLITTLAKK
- Format: functional
The source made the active and inactive calls.
Possible outcomes: active, inactive

[[record]]
compound = "COc1ccc(NC(=O)c2cccc(Oc3ccccc3)c2)cn1"
measured_target = "Sentrin-specific protease 8 (Homo sapiens, UniProt Q96LD8)"
category = "active"

[[record]]
compound = "Cn1c(C(=O)Nc2ccc3c(c2)OCO3)cc2sccc21"
measured_target = "Sentrin-specific protease 8 (Homo sapiens, UniProt Q96LD8)"
category = "active"

[[record]]
compound = "c1ccc(N2CC3CCc4ccccc4C3=N2)cc1 (stereo unspecified)"
measured_target = "Sentrin-specific protease 8 (Homo sapiens, UniProt Q96LD8)"
category = "active"

[[record]]
compound = "Nc1cc(Cl)nc(N/N=C/c2c(O)ccc3ccccc23)n1"
measured_target = "Sentrin-specific protease 8 (Homo sapiens, UniProt Q96LD8)"
category = "inactive"

[[record]]
compound = "O=C1CN(C(=O)COC(=O)c2ccc([N+](=O)[O-])s2)c2ccccc2N1"
measured_target = "Sentrin-specific protease 8 (Homo sapiens, UniProt Q96LD8)"
category = "active"

[[record]]
compound = "Cc1cccc(NC(=O)COc2ccc(Br)cc2C)n1"
measured_target = "Sentrin-specific protease 8 (Homo sapiens, UniProt Q96LD8)"
category = "inactive"

